PROCEDURE DETAILS: qHTS for identification of novel therapeutic agents for treatment of microphthalmiaassociated transcription factor (MiT) renal cell carcinoma (RCC) (AID 1963991);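 also: curves scaled with 100% = DMSO viability and 0% = empty wells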
EXPERIMENTAL CONTEXT: TFE3-RCC viability, CellTiter-Glo, 48 h; measured here: UOK145 Z-AUC; stronger effect = lower value
Records with an inconclusive call do not appear.
z-score values for the compounds below.
Response field accepts a number only; no unit should be typed.

Sample answers from the record:
NC1CC1c1ccccc1 (centres undefined)    0.821
CC[C@@H]1[C@@H](C)O[C@@](O)([C@@H](C)[C@H](O)[C@H](C)[C@H]2OC(=O)C=CC=C[C@@H](C)[C@@H]([C@@H](C)[C@@H](O)[C@H](C)[C@@]3(O)C[C@H](O[C@H]4C[C@H](O)[C@H](O)[C@H](C)O4)[C@H](CC)[C@@H](C)O3)OC(=O)C=CC=C[C@@H]2C)C[C@H]1O[C@H]1C[C@H](O)[C@H](O)[C@H](C)O1    -1.57
CCN1C[C@]2(OC(=O)c3ccccc3NC(C)=O)CC[C@H](OC)[C@@]34[C@H]5CC6[C@@H](OC)C[C@](O)(C(C[C@@H]23)[C@@H]14)[C@@]5(O)[C@@H]6OC    0.781
CC[C@@]1(O)C(=O)OCc2c1cc1n(c2=O)Cc2cc3ccccc3nc2-1    -3.18
CC1=C(O)C(=O)C=C2C1=CC=C1[C@@]2(C)CC[C@@]2(C)[C@@H]3C[C@](C)(C(=O)O)CC[C@]3(C)CC[C@]12C    -1.07
C[C@@H]1O[C@@H](O[C@@H]2C=C3CC[C@@H]4[C@@H](CC[C@]5(C)[C@H](c6ccc(=O)oc6)CC[C@@]45O)[C@@]3(C)CC2)[C@H](O)[C@H](O)[C@H]1O    -3.36

// fetch z-score given entry COc1cc2cc(c1Cl)N(C)C(=O)C[C@H](OC(=O)C(C)C)[C@]1(C)O[C@H]1[C@H](C)[C@@H]1C[C@@](O)(NC(=O)O1)[C@H](OC)C=CC=C(C)C2
-1.62

Tell me z-score reported for C[C@]12CC[C@@H]3[C@@H](CCC4=CC(=O)CC[C@@H]43)[C@@H]1CC[C@@H]2OC(=O)CCc1ccccc1
-2.12

Give me measured z-score, please, for this compound: c1cc2c(cc1[C@H]1OC[C@H]3[C@H]1CO[C@H]3c1ccc3c(c1)OCO3)OCO2
0.142

Tell me measured z-score for CCc1c(C(=O)C(N)=O)c2c(OCC(=O)O)cccc2n1Cc1ccccc1 please.
-1.8

====

PROCEDURE DETAILS: qHTS for Inhibitors of the Functional Ribonucleoprotein Complex (vRNP) of Lymphocytic Choriomeningitis Arenaviruses (LCMV): Viability assay - alamar blue signal for LCMV Primary Screen (AID 1347085); also: nearly all actives have a fitted effect of over 80% in size; also: potency is read from the fitted curve at half-maximal effect
EXPERIMENTAL CONTEXT: alamar blue viability counter-screen, LCMV vRNP screen cells; series mostly up to 57.5 µM
Inconclusive results are not listed. The source made the active and inactive calls. Calls come from the whole dose curve; tested in HEK293 reporter line.
MEASURED ENDPOINT: Potency

Cc1ccccc1-n1c(Cn2cnc3c(N)ncnc32)nc2cccc(C)c2c1=O    1930 nM (active)
C[C@@H]1CC[C@@]2(OC1)O[C@H]1C[C@H]3[C@@H]4CC=C5C[C@@H](O[C@@H]6O[C@H](CO)[C@@H](O[C@@H]7O[C@@H](C)[C@H](O)[C@@H](O)[C@@H]7O)[C@H](O)[C@@H]6O[C@@H]6O[C@@H](C)[C@H](O)[C@@H](O)[C@@H]6O)CC[C@]5(C)[C@@H]4CC[C@]3(C)[C@@H]1[C@H]2C    inactive
CCCCc1ccc(NS(=O)(=O)c2ccc(C)c(C(=O)N3CCN(c4cccc(C)c4C)CC3)c2)cc1    inactive
CC(=O)NCCc1c[nH]c2ccccc12    inactive
